Origin of values: ChEMBL document CHEMBL4406806

target: G-protein coupled receptor 68 (Homo sapiens); test: Positive allosteric modulation of human GPR68 expressed in HEK293T cells co-expressing Gs assessed as stimulation of proton-mediated cAMP production by measuring efficacy cooperativity in HBSS buffer containing pH 6.8 to 8.2 HEPES/pH 8.3 to 8.6 TAPS measured after 20 to 30 mins in presence of PDE inhibitor Ro 20-1724 by luciferase-glo reporter gene assay; assay type: functional, cell-based
Attribute: log(activity)

# mol, log(activity)
records = [
    ("Nc1nc(NCCCc2ccc(Oc3ccccc3)cc2)nc(-c2c(F)cccc2CO)n1", 0.01),
    ("Nc1nc(NCCc2ccccc2)nc(-c2c(F)cccc2CO)n1", 0.03),
    ("Nc1nc(NCc2ccccc2)nc(-c2ccc(F)cc2CO)n1", 0.24),
    ("COc1cccc(-c2nc(N)nc(NCc3ccccc3)n2)c1CO", 0.3),
    ("Nc1nc(NCCCCc2ccccc2)nc(-c2c(F)cccc2CO)n1", 0.06),
]

---

target: G-protein coupled receptor 68 (Homo sapiens); assay: Positive allosteric modulation of human GPR68 expressed in HEK293T cells co-expressing Gs assessed as stimulation of proton-mediated cAMP production by measuring allosteric binding affinity in HBSS buffer containing pH 6.8 to 8.2 HEPES/pH 8.3 to 8.6 TAPS measured after 20 to 30 mins in presence of PDE inhibitor Ro 20-1724 by luciferase-glo reporter gene assay; format: functional, cell-based
Calls of active or inactive are those of the source. The calls are words filed in the database; no cut-off is given here.

# compound, pKb
measured = [
    ("Cc1ccccc1-c1nc(N)nc(NCc2ccccc2)n1", "inactive"),
    ("Nc1nc(NCc2ccccc2)nc(-c2ccccc2)n1", "inactive"),
    ("Nc1cc(-c2ccccc2CO)nc(NCc2ccccc2)n1", "inactive"),
    ("CC(=O)c1cccc(-c2nc(N)nc(NCc3ccccc3)n2)c1", "inactive"),
    ("CC(O)c1ccccc1-c1nc(N)nc(NCc2ccccc2)n1 (stereo not given)", "inactive"),
    ("COc1cccc(CO)c1-c1nc(N)nc(NCc2ccccc2)n1", "inactive"),
    ("CNCc1ccccc1-c1nc(N)nc(NCc2ccccc2)n1", "inactive"),
    ("CC(=O)c1ccccc1-c1nc(N)nc(NCc2ccccc2)n1", "inactive"),
    ("CN(C)c1nc(NCc2ccccc2)nc(-c2ccccc2CO)n1", "inactive"),
    ("Nc1nc(NCc2ccccc2)nc(-c2cccc(CO)c2)n1", "inactive"),
]

---

Attribute: Activity index
target: UniProt:Q8BFQ3; assay: Positive allosteric modulation of mouse GPR68 expressed in HEK293T cells co-expressing Gs assessed as stimulation of proton-mediated cAMP production by measuring allosteric index in HBSS buffer containing pH 6.8 to 8.2 HEPES/pH 8.3 to 8.6 TAPS measured after 20 to 30 mins in presence of PDE inhibitor Ro 20-1724 by luciferase-glo reporter gene assay; assay type: functional, cell-based
Sequence (Q8BFQ3 whole entry): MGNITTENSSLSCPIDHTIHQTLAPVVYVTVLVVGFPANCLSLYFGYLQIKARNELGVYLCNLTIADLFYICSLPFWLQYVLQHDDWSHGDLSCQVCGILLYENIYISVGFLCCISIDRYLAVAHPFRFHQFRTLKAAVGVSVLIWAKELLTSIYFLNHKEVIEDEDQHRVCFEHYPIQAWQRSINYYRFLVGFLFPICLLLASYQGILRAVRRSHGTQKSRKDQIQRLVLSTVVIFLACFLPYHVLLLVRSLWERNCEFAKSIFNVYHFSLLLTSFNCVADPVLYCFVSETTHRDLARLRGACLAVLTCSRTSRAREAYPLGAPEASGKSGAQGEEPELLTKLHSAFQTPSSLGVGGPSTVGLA

# mol, Activity index
data = [
    ("Nc1nc(NCc2ccc(Oc3ccccc3)cc2)nc(-c2c(F)cccc2CO)n1", 6.46),
    ("Nc1nc(NCCc2ccccc2)nc(-c2cc(Cl)ccc2CO)n1", 5.92),
    ("Nc1nc(NCc2ccccc2)nc(-c2ccccc2CO)n1", 4.97),
    ("Nc1nc(NCCCc2ccccc2)nc(-c2cc(Cl)ccc2CO)n1", 5.98),
    ("Nc1nc(NCc2ccc(Cl)cc2)nc(-c2ccccc2CO)n1", 5.68),
    ("Nc1nc(NCCCCc2ccccc2)nc(-c2ccccc2CO)n1", 5.89),
]
